measured.target: human IL-1RAcP on cells (human, UniProt Q9NPH3 21-570)
assay.comment: cell-based or functional assay
quantity.name: IC50, IL-8 release, HDFa stimulated with IL-36β (nM)
Write it as a number; the unit nM goes unstated.

R001031 (CAN04) (antibody, human IgG1, kappa, V domains shown, Variable domains of prior art CAN04 on human IgG1 kappa constant regions with AEASS) VH: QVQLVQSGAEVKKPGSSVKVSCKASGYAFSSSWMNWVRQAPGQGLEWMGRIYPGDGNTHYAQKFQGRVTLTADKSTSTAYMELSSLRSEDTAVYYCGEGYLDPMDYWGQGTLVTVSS VL: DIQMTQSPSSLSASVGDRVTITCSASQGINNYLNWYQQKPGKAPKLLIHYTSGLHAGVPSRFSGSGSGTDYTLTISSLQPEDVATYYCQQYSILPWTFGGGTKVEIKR : 0.024

Pending binder:
Entry R001032 (1A05) (antibody, human IgG1, kappa, V domains shown, Rabbit variable domains of prior art 1A05 on human IgG1 kappa constant regions with AEASS; also called P013.S.01.B.A05) VH: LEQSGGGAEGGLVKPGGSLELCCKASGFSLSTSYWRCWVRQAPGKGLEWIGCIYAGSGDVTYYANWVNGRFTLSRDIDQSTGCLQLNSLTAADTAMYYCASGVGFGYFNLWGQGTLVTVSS VL: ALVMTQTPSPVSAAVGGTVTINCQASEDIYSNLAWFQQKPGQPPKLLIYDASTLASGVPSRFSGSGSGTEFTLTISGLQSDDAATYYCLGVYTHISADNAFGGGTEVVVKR — recorded IC50, IL-8 release, HDFa stimulated with IL-36β = 0.15
